Catalogue of total protein half-life in vivo values
procedureText: total protein half-life in vivo (active degradation + dilution); higher = more stable protein
conditionDescription: E. coli NCM3722 delta-clpP; growth: N-lim chemostat; doubling time 6 h
reportedMetric: total protein half-life in vivo (h)

querysequence=MNLDDKSLFLDAMEDVQPLKRATDVHWHPTRNQRAPQRIDTLQLDNFLTTGFLDIIPLSQPLEFRREGLQHGVLDKLRSGKYPQQASLNLLRQPVEECRKMVFSFIQQALADGLRNVLIIHGKGRDDKSHANIVRSYVARWLTEFDDVQAYCTALPHHGGSGACYVALRKTAQAKQENWERHAKRSR reportedmetric="total protein half-life in vivo" valueunit=h quantitativeresult=3.15
querysequence="MPSFDIVSEVDLQEARNAVDNASREVESRFDFRNVEASFELNDASKTIKVLSESDFQVNQLLDILRAKLLKRGIEGSSLDVPENIVHSGKTWFVEAKLKQGIESATQKKIVKMIKDSKLKVQAQIQGDEIRVTGKSRDDLQAVMAMVRGGDLGQPFQFKNFRD [P0A8E7]" reportedmetric="total protein half-life in vivo" valueunit=h quantitativeresult=6.38

---

Catalogue of total protein half-life in vivo values
procedureText: total protein half-life in vivo (active degradation + dilution); higher = more stable protein
conditionDescription: wild type E. coli NCM3722; growth: N-lim chemostat; doubling time 12 h
reportedMetric: total protein half-life in vivo (h)

querysequence="MTMNITSKQMEITPAIRQHVADRLAKLEKWQTHLINPHIILSKEPQGFVADATINTPNGVLVASGKHEDMYTAINELINKLERQLNKLQHKGEARRAATSVKDANFVEEVEEE [P0AD49]" quantitativeresult=1.07
querysequence="MVSRRVQALLDQLRAQGIQDEQVLNALAAVPREKFVDEAFEQKAWDNIALPIGQGQTISQPYMVARMTELLELTPQSRVLEIGTGSGYQTAILAHLVQHVCSVERIKGLQWQARRRLKNLDLHNVSTRHGDGWQGWQARAPFDAIIVTAAPPEIPTALMTQLDEGGILVLPVGEEHQYLKRVRRRGGEFIIDTVEAVRFVPLVKGELA [P0A7A5]" quantitativeresult=6.43

---

procedureText: total protein half-life in vivo (active degradation + dilution); higher = more stable protein
conditionDescription: wild type E. coli NCM3722; growth: P-lim chemostat; doubling time 6 h
Catalogue of total protein half-life in vivo values
reportedMetric: total protein half-life in vivo (h)

querysequence=MQASQFSAQVLDWYDKYGRKTLPWQIDKTPYKVWLSEVMLQQTQVATVIPYFERFMARFPTVTDLANAPLDEVLHLWTGLGYYARARNLHKAAQQVATLHGGKFPETFEEVAALPGVGRSTAGAILSLSLGKHFPILDGNVKRVLARCYAVSGWPGKKEVENKLWSLSEQVTPAVGVERFNQAMMDLGAMICTRSKPKCSLCPLQNGCIAAANNSWALYPGKKPKQTLPERTGYFLLLQHEDEVLLAQRPPSGLWGGLYCFPQFADEESLRQWLAQRQIAADNLTQLTAFRHTFSHFHLDIVPMWLPVSSFTGCMDEGNALWYNLAQPPSVGLAAPVERLLQQLRTGAPV reportedmetric="total protein half-life in vivo" valueunit=h quantitativeresult=4.89
querysequence=MSQVQSGILPEHCRAAIWIEANVKGEVDALRAASKTFADKLATFEAKFPDAHLGAVVAFGNNTWRALSGGVGAEELKDFPGYGKGLAPTTQFDVLIHILSLRHDVNFSVAQAAMEAFGDCIEVKEEIHGFRWVEERDLSGFVDGTENPAGEETRREVAVIKDGVDAGGSYVFVQRWEHNLKQLNRMSVHDQEMVIGRTKEANEEIDGDERPETSHLTRVDLKEDGKGLKIVRQSLPYGTASGTHGLYFCAYCARLHNIEQQLLSMFGDTDGKRDAMLRFTKPVTGGYYFAPSLDKLMAL reportedmetric="total protein half-life in vivo" valueunit=h quantitativeresult=5.09
querysequence="MSDDVALPLEFTDAAANKVKSLIADEDNPNLKLRVYITGGGCSGFQYGFTFDDQVNEGDMTIEKQGVGLVVDPMSLQYLVGGSVDYTEGLEGSRFIVTNPNAKSTCGCGSSFSI [P0ACC3]" reportedmetric="total protein half-life in vivo" valueunit=h quantitativeresult=2.4
querysequence=MSIRIIPQDELGSSEKRTADMIPPLLFPRLKNLYNRRAERLRELAENNPLGDYLRFAALIAHAQEVVLYDHPLEMDLTARIKEASAQGKPPLDIHVLPRDKHWQKLLMALIAELKPEMSGPALAVIENLEKASTQELEDMASALFASDFSSVSSDKAPFIWAALSLYWAQMANLIPGKARAEYGEQRQYCPVCGSMPVSSMVQIGTTQGLRYLHCNLCETEWHVVRVKCSNCEQSGKLHYWSLDDEQAAIKAESCDDCDTYLKILYQEKDPKIEAVADDLASLVLDARMEQEGYARSSINPFLFPGEGE reportedmetric="total protein half-life in vivo" valueunit=h quantitativeresult=4.06
querysequence="MNKETQPIDRETLLKEANKIIREHEDTLAGIEATGVTQRNGVLVFTGDYFLDEQGLPTAKSTAVFNMFKHLAHVLSEKYHLVD [P0AB61]" reportedmetric="total protein half-life in vivo" valueunit=h quantitativeresult=6.02
querysequence="MMLSKKNSETLENFSEKLEVEGRSLWQDARRRFMHNRAAVASLIVLVLIALFVILAPMLSQFAYDDTDWAMMSSAPDMESGHYFGTDSSGRDLLVRVAIGGRISLMVGVAAALVAVVVGTLYGSLSGYLGGKVDSVMMRLLEILNSFPFMFFVILLVTFFGQNILLIFVAIGMVSWLDMARIVRGQTLSLKRKEFIEAAQVGGVSTSGIVIRHIVPNVLGVVVVYASLLVPSMILFESFLSFLGLGTQEPLSSWGALLSDGANSMEVSPWLLLFPAGFLVVTLFCFNFIGDGLRDALDPKDR [P0AFH6]" reportedmetric="total protein half-life in vivo" valueunit=h quantitativeresult=5.37
querysequence=MLIIETLPLLRQQIRRLRMEGKRVALVPTMGNLHDGHMKLVDEAKARADVVVVSIFVNPMQFDRPEDLARYPRTLQEDCEKLNKRKVDLVFAPSVKEIYPNGTETHTYVDVPGLSTMLEGASRPGHFRGVSTIVSKLFNLVQPDIACFGEKDFQQLALIRKMVADMGFDIEIVGVPIMRAKDGLALSSRNGYLTAEQRKIAPGLYKVLSSIADKLQAGERDLDEIITIAGQELNEKGFRADDIQIRDADTLLEVSETSKRAVILVAAWLGDARLIDNKMVELA reportedmetric="total protein half-life in vivo" valueunit=h quantitativeresult=5.77
querysequence=MRYRIFLLFFFALLPTSLVWAAPAQRAFSDWQVTCNNQNFCVARNTGDHNGLVMTLSRSAGAHTDAVLRIERGGLKSPEASEGEIAPRLLLDGEPLALSGDKWRISPWLLVTDDTATITAFLQMIQEGKAITLRDGDQTISLSGLKAALLFIDAQQKRVGSETAWIKKGDEPPLSVPPAPALKEVAVVNPTPTPLSLEERNDLLDYGNWRMNGLRCSLDPLRREVNVTALTDDKALMMISCEAGAYNTIDLAWIVSRKKPLASRPVRLRLPFNNGQETNELELMNATFDEKSRELVTLAKGRGLSDCGIQARWRFDGQRFRLVRYAAEPTCDNWHGPDAWPTLWITR reportedmetric="total protein half-life in vivo" valueunit=h quantitativeresult=4.81
querysequence=MDNRGEFLNNVAQALGRPLRLEPQAEDAPLNNYANERLTQLNQQQRCDAFIQFASDVMLTRCELTSEAKAAEAAIRLCKELGDQSVVISGDTRLEELGISERLQQECNAVVWDPAKGAENISQAEQAKVGVVYAEYGLTESGGVVLFSAAERGRSLSLLPEYSLFILRKSTILPRVAQLAEKLHQKAQAGERMPSCINIISGPSSTADIELIKVVGVHGPVKAVYLIIEDC reportedmetric="total protein half-life in vivo" valueunit=h quantitativeresult=2.13
querysequence=MQDSILTTVVKDIDGEVTTLEKFAGNVLLIVNVASKCGLTPQYEQLENIQKAWVDRGFMVLGFPCNQFLEQEPGSDEEIKTYCTTTWGVTFPMFSKIEVNGEGRHPLYQKLIAAAPTAVAPEESGFYARMVSKGRAPLYPDDILWNFEKFLVGRDGKVIQRFSPDMTPEDPIVMESIKLALAK reportedmetric="total protein half-life in vivo" valueunit=h quantitativeresult=4.87
querysequence=MTIYTLSHGSLKLDVSDQGGVIEGFWRDTTPLLRPGKKSGVATDASCFPLVPFANRVSGNRFVWQGREYQLQPNVEWDAHYLHGDGWLGEWQCVSHSDDSLCLVYEHRSGVYHYRVSQAFHLTADTLTVTLSVTNQGAETLPFGTGWHPYFPLSPQTRIQAQASGYWLEREQWLAGEFCEQLPQELDFNQPAPLPRQWVNNGFAGWNGQARIEQPQEGYAIIMETTPPAPCYFIFVSDPAFDKGYAFDFFCLEPMSHAPDDHHRPEGGDLIALAPGESTTSEMSLRVEWL reportedmetric="total protein half-life in vivo" valueunit=h quantitativeresult=6.42
